- assaySystem: rat P2X3 receptor (Rattus norvegicus)
- Sequence (P49654 whole entry): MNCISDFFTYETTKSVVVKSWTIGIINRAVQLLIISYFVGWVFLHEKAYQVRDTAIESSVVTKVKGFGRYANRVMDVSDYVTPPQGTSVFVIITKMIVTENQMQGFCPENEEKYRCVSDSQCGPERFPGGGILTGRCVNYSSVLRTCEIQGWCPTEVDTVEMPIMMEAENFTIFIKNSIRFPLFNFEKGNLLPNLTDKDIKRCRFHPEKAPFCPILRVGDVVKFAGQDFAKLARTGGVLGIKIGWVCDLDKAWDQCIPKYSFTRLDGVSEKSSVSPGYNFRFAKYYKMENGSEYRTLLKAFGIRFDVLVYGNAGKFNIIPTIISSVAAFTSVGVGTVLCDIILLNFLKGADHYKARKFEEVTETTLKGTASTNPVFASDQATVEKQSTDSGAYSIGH
- assay: Evaluation of rat P2X3 receptor inhibitory activity in the presence of rat serum albumin (Test Example 4)
- Source text: (Test Example 4) Evaluation of Rat P2X3 Receptor Inhibitory Activity in the Presence of Rat Serum Albumin (RSA)
parameter: IC50

Ask: # IC50 lookup, item C[C@@H](Cn1c(=O)[nH]/c(=N\c2ccc(Oc3ccccn3)cc2)n(Cc2ccc(Cl)cc2)c1=O)C(=O)O
Reply: 10 nM
